- measuredOn: NDM-1 (Klebsiella pneumoniae)
- protocol: biochemical
- Assay type: biochemical
- measurementConditions: NDM-1 enzyme, CCF2-FA substrate; read-out: NDM-1 IC50
Quick reference: IC50 of the listed items.
The reply should be a number in nM, with the unit left off.

Illustrative cases are given below, each with its answer.
N=C(NC1CCNC1)c1ccc(-c2ccc(C(F)(F)F)c(S(N)(=O)=O)c2-c2nn[nH]n2)cc1 (stereo not drawn) [Example 564] ... 262
NS(=O)(=O)c1c(C(F)(F)F)ccc([C@H]2CC[C@H](NC3CCCNC3)CC2)c1-c1nnn[nH]1 (stereo partly drawn) [Example 697] ... 1.61
NS(=O)(=O)c1c(C(F)(F)F)ccc([C@H]2CC[C@H](NCC3CCNCC3)CC2)c1-c1nnn[nH]1 [Example 680] ... 41.4
NS(=O)(=O)c1c(C(F)(F)F)ccc(-c2ccc(C3CCN(C[C@@H]4CCCN4)CC3)cc2)c1-c1nnn[nH]1 [Example 669] ... 3.92
Nc1nc2c(-c3ccc(CCCCCO)c(S(N)(=O)=O)c3-c3nn[nH]n3)cccc2s1 [Example 534] ... 0.444

Query: IC50; subject: N#Cc1cccc2ncc(-c3cccc(S(N)(=O)=O)c3-c3nnn[nH]3)n12 [Example 649] 2.87

Cool, now NCCC1CCC(N[C@H]2CC[C@H](c3ccc(C(F)(F)F)c(S(N)(=O)=O)c3-c3nnn[nH]3)CC2)CC1 (stereo partly drawn) [Example 705] 18.2

Cool, now Nc1ccc(-c2ccc(CC[C@H]3CC[C@H](N)CC3)c(S(N)(=O)=O)c2-c2nnn[nH]2)cn1 [Example 577] 2.47

Cool, now NS(=O)(=O)c1c(C(F)(F)F)ccc(N2CCCC(CO)C2)c1-c1nnn[nH]1 (stereo not drawn) [Example 659] 18.8

Cool, now NC(=O)c1ccc(-c2ccc(C(F)(F)F)c(S(N)(=O)=O)c2-c2nn[nH]n2)cn1 [Example 527] 7.03

Cool, now NS(=O)(=O)c1c(C(F)(F)F)ccc(-c2cnc3ccoc3c2)c1-c1nnn[nH]1 [Example 711] 1.01

Cool, now NCc1ncc(CCc2ccc(C(F)(F)F)c(S(N)(=O)=O)c2-c2nn[nH]n2)cc1N [Example 513] 9.35

Cool, now Nc1ccc(-c2ccc(CC[C@H]3CC[C@@H](N)CC3)c(S(N)(=O)=O)c2-c2nnn[nH]2)cn1 [Example 578] 1.85

Cool, now NS(=O)(=O)c1c(C(F)(F)F)ccc([C@H]2CC[C@@H](O)CC2)c1-c1nnn[nH]1 [Example 495] 1.87

Cool, now NS(=O)(=O)c1c(C(F)(F)F)ccc(N2CC[C@H](CO)[C@H](F)C2)c1-c1nnn[nH]1 [Example 663] 2.46

---

- measuredOn: VIM-1 (Pseudomonas aeruginosa (strain ATCC 15692 / DSM 22644 / CIP 104116 / JCM 14847 / LMG 12228 / 1C / PRS 101 / PAO1), UniProt A0A0F7KYQ8)
- protocol: Enzyme activity: determination of IC50, fluorescence assay with CCF2-FA substrate (VIM-1)
- Assay type: biochemical
- measurementConditions: fluorescence assay with CCF2-FA substrate; read-out: VIM-1 IC50
Quick reference: pIC50 of the listed items.
// pIC50 here means minus log10 of the molar concentration (mol/L)

Illustrative cases are given below, each with its answer.
COc1cc(-c2cccc(S(N)(=O)=O)c2-c2nnn[nH]2)ccn1 ... 7.21
NS(=O)(=O)c1c(C(F)(F)F)ccc(-c2ccc(C3CCN(CCC4CCNCC4)CC3)cc2)c1-c1nnn[nH]1 ... 8.33
Cc1ccc(Cc2cccc(S(N)(=O)=O)c2-c2nnn[nH]2)cc1 ... 6.36
NS(=O)(=O)c1c(C(F)(F)F)ccc(-c2ccc(C3CN(C4CC5(CCNCC5)C4)C3)cc2)c1-c1nnn[nH]1 ... 7.71

Query: pIC50; subject: NC1CCCC12CCN(c1ccc(C(F)(F)F)c(S(N)(=O)=O)c1-c1nnn[nH]1)CC2 (centres unmarked) 7.32

---

- measuredOn: NDM-1 (Klebsiella pneumoniae, UniProt C7C422)
- Sequence (C7C422 whole entry, looked up, species assumed): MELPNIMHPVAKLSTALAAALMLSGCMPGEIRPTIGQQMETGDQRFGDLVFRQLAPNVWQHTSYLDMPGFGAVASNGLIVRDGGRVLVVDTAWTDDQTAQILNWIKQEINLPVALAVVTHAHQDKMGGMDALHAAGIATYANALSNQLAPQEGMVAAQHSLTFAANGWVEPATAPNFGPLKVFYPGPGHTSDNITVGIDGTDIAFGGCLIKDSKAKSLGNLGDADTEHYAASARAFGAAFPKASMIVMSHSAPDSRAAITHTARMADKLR
- protocol: biochemical
- Assay type: biochemical
- measurementConditions: NDM-1 enzyme, CCF2-FA fluorescence assay; read-out: NDM-1 IC50
Response field label: string, one of MET (IC50 strictly below 8 nM) or NOT MET.

NS(=O)(=O)c1nccc(N2CCC(c3nnc4ccccn34)CC2)c1-c1nnn[nH]1 ... NOT MET
NS(=O)(=O)c1c(CC2CCNC2)ccc(-c2ccc(C3CCNCC3)cc2)c1-c1nn[nH]n1 (centres unmarked) ... NOT MET
NS(=O)(=O)c1cccc(-c2cnc3ccoc3c2)c1-c1nn[nH]n1 ... MET
NCc1ccc(-c2cccc(S(N)(=O)=O)c2-c2nnn[nH]2)cn1 ... NOT MET
Cc1nc(CNCc2ccc(-c3cccc(S(N)(=O)=O)c3-c3nnn[nH]3)cc2)no1 ... MET
NS(=O)(=O)c1c(CC2CNC2)ccc(-c2ccc(C3CCNCC3)cc2)c1-c1nn[nH]n1 ... NOT MET

For NS(=O)(=O)c1c(C(F)(F)F)ccc(-c2ccc3nccn3c2)c1-c1nnn[nH]1 [Example 484] , is the recorded IC50 below the cut-off of 8 nM? MET

Cool, now NC[C@H]1CC[C@H](Cc2ccc(-c3ccc(C4CCNCC4)cc3)c(-c3nn[nH]n3)c2S(N)(=O)=O)CC1 MET

Cool, now Nc1ccnc2cc(-c3ccc(C(F)(F)F)c(S(N)(=O)=O)c3-c3nnn[nH]3)ccc12 NOT MET

Cool, now NS(=O)(=O)c1cccc(-c2ccc(N3CCNCC3)nc2)c1-c1nn[nH]n1 NOT MET

Cool, now NS(=O)(=O)c1cccc(-c2ccc(C3(O)CNC3)cc2)c1-c1nn[nH]n1 NOT MET

Cool, now CC(CC(=O)O)NCc1ccc(-c2cccc(S(N)(=O)=O)c2-c2nnn[nH]2)cc1 (centres unmarked) NOT MET

Cool, now NS(=O)(=O)c1cccc(-c2ccc(CN3C[C@H](O)C[C@H]3CO)cc2)c1-c1nnn[nH]1 NOT MET

Cool, now Nc1ccc(-c2ccc(Br)c(S(N)(=O)=O)c2-c2nn[nH]n2)cn1 MET

Cool, now CN1CCC(NCc2ccc(-c3cccc(S(N)(=O)=O)c3-c3nnn[nH]3)cc2)C1=O (centres unmarked) MET

Cool, now CS(=O)(=O)c1nc2cc(Cl)c(-c3cccc(S(N)(=O)=O)c3-c3nn[nH]n3)cc2[nH]1 NOT MET

Cool, now NS(=O)(=O)c1cccc(-c2ccc(CN3CC(F)(F)C3)cc2)c1-c1nnn[nH]1 MET

Cool, now N=C(N)N1CCC(N)(c2ccc(-c3ccc(C(F)(F)F)c(S(N)(=O)=O)c3-c3nn[nH]n3)cc2)CC1 MET

Cool, now NS(=O)(=O)c1cccc(-c2ccc(CN3CC(O)C(F)C3)cc2)c1-c1nnn[nH]1 (centres unmarked) MET

Cool, now NS(=O)(=O)c1c(CC2CCNCC2(F)F)ccc(-c2ccc(C3CCNCC3)cc2)c1-c1nn[nH]n1 (centres unmarked) MET

Cool, now NS(=O)(=O)c1cccc(-c2ccc(CNCCc3c[nH]cn3)cc2)c1-c1nnn[nH]1 NOT MET

Cool, now NC(=O)CCc1ccc(-c2ccc(C(F)(F)F)c(S(N)(=O)=O)c2-c2nn[nH]n2)cc1 MET

Cool, now NS(=O)(=O)c1c(Br)ccc(-c2ccc(C3CCNCC3)cc2)c1-c1nnn[nH]1 NOT MET

Cool, now COc1cccc(S(N)(=O)=O)c1-c1nnn[nH]1 NOT MET

Cool, now Nc1nc2ccc(-c3cccc(S(N)(=O)=O)c3-c3nnn[nH]3)cc2s1 MET

Cool, now Nc1n[nH]c2ccc(-c3ccc(C(F)(F)F)c(S(N)(=O)=O)c3-c3nnn[nH]3)cc12 MET

Cool, now CNCc1ccc(-c2cccc(S(N)(=O)=O)c2-c2nnn[nH]2)cc1 NOT MET

---

- measuredOn: IMP-1 (Serratia marcescens)
- Sequence (P52699 whole entry, looked up): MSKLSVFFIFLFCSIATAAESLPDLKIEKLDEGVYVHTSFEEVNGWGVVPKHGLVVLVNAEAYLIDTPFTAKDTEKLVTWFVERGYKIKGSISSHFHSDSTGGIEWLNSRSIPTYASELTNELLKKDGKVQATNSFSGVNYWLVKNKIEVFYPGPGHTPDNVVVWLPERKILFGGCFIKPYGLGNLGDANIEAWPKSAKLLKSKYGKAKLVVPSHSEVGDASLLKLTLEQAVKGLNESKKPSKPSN
- protocol: biochemical
- Type: biochemical
- measurementConditions: IMP-1 enzyme, CCF2-FA fluorescence assay; read-out: IMP-1 IC50
experimentalReadout: IC50 (nM)
The reply should be a number in nM, with the unit left off.

Illustrative cases are given below, each with its answer.
NS(=O)(=O)c1cccc(-c2cccc3sc(Br)nc23)c1-c1nnn[nH]1 ... 18.8
Nc1ncc(-c2ccc(C(F)(F)F)c(S(N)(=O)=O)c2-c2nnn[nH]2)cn1 ... 13.7
NC(=O)CCc1ccc(-c2ccc(C(F)(F)F)c(S(N)(=O)=O)c2-c2nn[nH]n2)cc1 ... 0.537

Shifting focus to the compound that follows.
Query: IC50; subject: NCc1ccc(-c2cccc(S(N)(=O)=O)c2-c2nnn[nH]2)cn1 3740

---

- measuredOn: NDM-1 (Klebsiella pneumoniae, UniProt C7C422)
- protocol: biochemical
- Format: biochemical
- measurementConditions: NDM-1 enzyme, CCF2-FA substrate; read-out: NDM-1 IC50
Quick reference: pIC50 of the listed items.
// pIC50 here means minus log10 of the molar concentration (mol/L)

Illustrative cases are given below, each with its answer.
NS(=O)(=O)c1c(CC2CCNCC2)ccc(-c2ccc(C3CN(CCO)C3)cc2)c1-c1nn[nH]n1 ... 7.52
NC1CCC(N[C@H]2CC[C@H](c3ccc(C(F)(F)F)c(S(N)(=O)=O)c3-c3nnn[nH]3)CC2)CC1 (stereo partly shown) [Example 690] ... 7.90
Nc1nc2cc(F)cc(-c3ccc(C(F)(F)F)c(S(N)(=O)=O)c3-c3nnn[nH]3)c2[nH]1 ... 9.63

Request - read-out pIC50 | tested on NDM-1 (Klebsiella pneumoniae, UniProt C7C422) | compound Nc1nc2c(-c3ccc(CC4CCC4)c(S(N)(=O)=O)c3-c3nn[nH]n3)cccc2s1 9.07
